Data origin, for the record: patent US6500823B1

- target-under-test: poly-ADP-ribose polymerase from rat liver (Rattus norvegicus, UniProt P27008)
- Construct: We have isolated the poly-ADP-ribose polymerase from rat liver; from tissue; host or cells: rat liver
- Sequence (P27008 whole entry): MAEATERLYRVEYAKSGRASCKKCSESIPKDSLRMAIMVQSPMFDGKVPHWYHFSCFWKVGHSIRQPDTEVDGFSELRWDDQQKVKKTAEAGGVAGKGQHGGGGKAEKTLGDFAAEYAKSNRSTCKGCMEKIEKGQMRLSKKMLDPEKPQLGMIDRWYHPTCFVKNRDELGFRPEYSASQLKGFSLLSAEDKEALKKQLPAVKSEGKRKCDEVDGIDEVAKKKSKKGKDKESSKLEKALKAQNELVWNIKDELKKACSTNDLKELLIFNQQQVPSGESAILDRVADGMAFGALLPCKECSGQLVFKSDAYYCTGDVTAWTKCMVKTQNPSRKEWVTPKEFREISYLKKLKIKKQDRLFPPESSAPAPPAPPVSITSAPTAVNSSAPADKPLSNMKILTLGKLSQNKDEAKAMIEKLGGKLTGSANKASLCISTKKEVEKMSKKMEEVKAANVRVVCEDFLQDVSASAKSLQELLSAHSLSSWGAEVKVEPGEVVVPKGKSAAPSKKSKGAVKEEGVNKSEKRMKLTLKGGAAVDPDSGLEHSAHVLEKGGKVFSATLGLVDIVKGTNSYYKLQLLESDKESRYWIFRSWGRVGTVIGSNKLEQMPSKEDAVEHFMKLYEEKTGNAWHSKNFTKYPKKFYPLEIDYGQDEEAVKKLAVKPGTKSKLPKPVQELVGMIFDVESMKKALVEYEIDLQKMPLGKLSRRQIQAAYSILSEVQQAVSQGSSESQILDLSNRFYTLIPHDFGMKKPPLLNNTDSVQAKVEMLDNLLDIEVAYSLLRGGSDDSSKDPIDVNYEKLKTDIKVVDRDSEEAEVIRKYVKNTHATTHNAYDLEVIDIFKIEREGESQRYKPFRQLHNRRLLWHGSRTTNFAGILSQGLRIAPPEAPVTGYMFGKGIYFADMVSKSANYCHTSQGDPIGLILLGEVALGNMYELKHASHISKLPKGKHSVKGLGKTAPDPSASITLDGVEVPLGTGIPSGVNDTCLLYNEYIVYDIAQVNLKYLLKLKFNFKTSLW
- assay-details: In vitro PARP inhibition on isolated enzyme
- Type: biochemical
- particulars: isolated rat liver enzyme; ± SEM from four parallel measurements; read-out: PARP I0.5 mg/l (converted)
Structures can show the parent of a compound that is named as a salt.
IC50 overview

| compound | unit-abbrev | IC50 |
| --- | --- | --- |
| COc1ccc(C=CC(N)=NOCC(O)CN2CCCC2)cc1OC (stereo not drawn) [Example 16, Dihydrochloride] | µM | 51.5 |
| NC(C=Cc1ccccc1)=NOCC(O)CN1CCCC1 (stereo not drawn) [Example 15, dihydrochloride] | µM | 65.7 |
| COc1ccc(C=CC(N)=NOCC(O)CNC(C)(C)C)cc1OC (stereo not drawn) [Example 8, Dihydrochloride] | µM | 28.5 |
| NC(C=Cc1cccnc1)=NOCC(O)CN1CCc2ccccc2C1 (stereo not drawn) [Example 13, Dihydrochloride] | µM | 34 |
| NC(C=Cc1ccccc1)=NOCC(O)CN1CCOCC1 (stereo not drawn) | µM | 22.9 |
| COc1ccc(C=CC(N)=NOCCCN2CCCCC2)cc1OC [Example 2, Hydrochloride] | µM | 15 |
| COc1ccc(C=CC(N)=NOCC(O)CN2CCCCC2)cc1OC (stereo not drawn) | µM | 93.8 |
| OC(CON=C(Cl)C=Cc1cccnc1)CN1CCOCC1 (stereo not drawn) [Example 33, Maleate] | µM | 15.8 |
| CC(C)(C)NCC(O)CON=C(Cl)C=Cc1cccnc1 (stereo not drawn) | µM | 19.2 |
| COc1ccc(C=CC(N)=NOCC(O)CN2CCc3ccccc3C2)cc1OC (stereo not drawn) [Example 12, Dihydrochloride] | µM | 19.4 |
| NC(C=Cc1cccnc1)=NOCCCN1CCCCC1 [Example 3, Hydrochloride] | µM | 8.32 |
| NC(C=Cc1cccnc1)=NOCC(O)CN1CCOCC1 (stereo not drawn) [Example 10, Hydrochloride] | µM | 55.5 |
| NC(C=Cc1ccccc1)=NOCC(O)CN1CCCCC1 (stereo not drawn) [Example 4, Dihydrochloride] | µM | 27 |
| CC(C)(C)NCC(O)CON=C(N)C=Cc1cccnc1 (stereo not drawn) [Example 14, Dihydrochloride] | µM | 44.5 |
| NC(C=Cc1cccnc1)=NOCC(O)CN1CCCC1 (stereo not drawn) [Example 17, Hydrochloride] | µM | 51.7 |
| COc1ccc(C=CC(N)=NOCC(O)CN2CCOCC2)cc1OC (stereo not drawn) [Example 9, Hydrochloride] | µM | 35.6 |
| NC(C=Cc1ccccc1)=NOCCCN1CCCCC1 [Example 1, Dihydrochloride] | µM | 13.9 |
| NC(C=C1CCCCC1)=NOCC(O)CN1CCCCC1 (stereo not drawn) | µM | 609 |
| CC(C)(C)NCC(O)CON=C(N)C=Cc1ccccc1 (stereo not drawn) | µM | 27.5 |
| NC(C=Cc1cccnc1)=NOCC(O)CN1CCCCC1 (stereo not drawn) [Example 5, Dihydrochloride] | µM | 58.1 |
| NC(C=Cc1ccccc1)=NOCC(O)CN1CCc2ccccc2C1 (stereo not drawn) [Example 11, Dihydrochloride] | µM | 51.2 |
